testedOn: Elastase (Pseudomonas aeruginosa (strain ATCC 15692 / PAO1 / 1C / PRS 101 / LMG12228))
Sequence (P14756 whole entry): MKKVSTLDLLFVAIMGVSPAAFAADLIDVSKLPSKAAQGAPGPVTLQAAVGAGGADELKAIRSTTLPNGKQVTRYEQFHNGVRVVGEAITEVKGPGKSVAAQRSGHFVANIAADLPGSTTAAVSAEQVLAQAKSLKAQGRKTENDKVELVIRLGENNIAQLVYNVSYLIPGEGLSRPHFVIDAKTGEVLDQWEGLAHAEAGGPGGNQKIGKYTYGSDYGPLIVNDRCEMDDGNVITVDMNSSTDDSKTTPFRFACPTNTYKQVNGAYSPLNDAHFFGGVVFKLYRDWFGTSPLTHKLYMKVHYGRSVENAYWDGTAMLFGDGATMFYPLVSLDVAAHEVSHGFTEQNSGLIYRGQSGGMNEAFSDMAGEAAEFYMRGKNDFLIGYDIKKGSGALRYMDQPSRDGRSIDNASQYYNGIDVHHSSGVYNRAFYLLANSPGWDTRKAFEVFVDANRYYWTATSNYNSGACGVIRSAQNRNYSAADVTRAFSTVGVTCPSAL
procedureText: Inhibition of Pseudomonas aeruginosa pseudolysin pretreated with compound for 1 hr followed by the addition of 1.73 uM bradykinin like substrate by spectrofluorometry
pIC50: −log10 of the molar value.
The entries below come with measured pIC50 values attached.

{"molecule": "COc1ccc(S(=O)(=O)c2ccccc2CC(=O)NO)cc1", "pIC50": 4.54}
{"molecule": "O=C(CCNS(=O)(=O)c1ccc(-c2ccccc2)cc1)NO", "pIC50": 4.10}
{"molecule": "CCCCC(NOCc1ccccc1)C(=O)NO (stereo not given)", "pIC50": 5.72}
{"molecule": "CC(C)ON(CC(=O)NO)S(=O)(=O)c1ccc(Br)s1", "pIC50": 4.51}
{"molecule": "O=C(Cc1ccccc1S(=O)(=O)c1ccc(OCCCN2C(=O)c3ccccc3C2=O)cc1)NO", "pIC50": 4.42}
